Tested on: BGC-823 (human gastric cancer cells)
Assay: MTT cancer cell growth inhibition
Assay type: cell-based
Conditions: Homo sapiens, BGC-823, 72 h, BGC-823 cells, MTT, 72 hours incubation; read-out: GI50 BG
GI50 for assorted molecules

{"columns": ["SMILES_DATA", "TARGET_OR_TEST_SYSTEM", "GI50 [nM]"],
 "data": [
  ["C/C=C1\\NC(=O)c2ccc(SC)c(n2)CNC(=O)C[C@@H](/C=C/CCS)OC(=O)[C@H](CC)NC1=O", "BGC-823 (human gastric cancer cells)", 10],
  ["C/C=C1\\NC(=O)c2ccc(SC)c(n2)CNC(=O)C[C@@H](/C=C/CCS)OC(=O)[C@H](C)NC1=O", "BGC-823 (human gastric cancer cells)", 80],
  ["CSc1cc2nc(c1)C(=O)NC(=C(C)C)C(=O)N[C@@H](C(C)C)C(=O)O[C@H](/C=C/CCSC(C)=O)CC(=O)NC2", "BGC-823 (human gastric cancer cells)", 50],
  ["C/C=C1\\NC(=O)c2nc(ccc2SC)CNC(=O)C[C@@H](/C=C/CCSC(=O)CCCCC)OC(=O)[C@H](C(C)C)NC1=O", "BGC-823 (human gastric cancer cells)", 20],
  ["C/C=C1\\NC(=O)c2ccc(SC)c(n2)CNC(=O)C[C@@H](/C=C/CCSC(=O)CCCCCCC)OC(=O)[C@H](C)NC1=O", "BGC-823 (human gastric cancer cells)", 70],
  ["C/C=C1\\NC(=O)c2nc(ccc2SC)CNC(=O)C[C@@H](/C=C/CCSC(=O)CCCCCCC)OC(=O)[C@H](C(C)C)NC1=O", "BGC-823 (human gastric cancer cells)", 50],
  ["C/C=C1\\NC(=O)c2ccc(SC)c(n2)CNC(=O)C[C@@H](/C=C/CCSC(C)=O)OC(=O)[C@H](CCCCN)NC1=O", "BGC-823 (human gastric cancer cells)", 50],
  ["C/C=C1\\NC(=O)c2cc(SC)cc(n2)CNC(=O)C[C@@H](/C=C/CCSC(C)=O)OC(=O)[C@H](Cc2cccc3ccccc23)NC1=O", "BGC-823 (human gastric cancer cells)", 90],
  ["C=C1NC(=O)c2ccc(SC)c(n2)CNC(=O)C[C@@H](/C=C/CCSC(C)=O)OC(=O)[C@H](C(C)C)NC1=O", "BGC-823 (human gastric cancer cells)", 20],
  ["C/C=C1\\NC(=O)c2cc(SC)cc(n2)CNC(=O)C[C@@H](/C=C/CCSC=O)OC(=O)[C@H](C(C)C)NC1=O", "BGC-823 (human gastric cancer cells)", 60],
  ["C/C=C1\\NC(=O)c2cc(SCC)cc(n2)CNC(=O)C[C@@H](/C=C/CCSC(=O)CCCCCCC)OC(=O)[C@H](C(C)C)NC1=O", "BGC-823 (human gastric cancer cells)", 60],
  ["C/C=C1\\NC(=O)c2nc(ccc2SC)CNC(=O)C[C@@H](/C=C/CCS)OC(=O)[C@H](C)NC1=O", "BGC-823 (human gastric cancer cells)", 50],
  ["C/C=C1\\NC(=O)c2cccc(n2)CNC(=O)C[C@@H](/C=C/CCSC(=O)CCCCCCC)OC(=O)[C@H](c2ccc(O)cc2)NC1=O", "BGC-823 (human gastric cancer cells)", 140],
  ["C/C=C1\\NC(=O)c2ccc(SC)c(n2)CNC(=O)C[C@@H](/C=C/CCSC(C)=O)OC(=O)[C@H](Cc2ccccc2)NC1=O", "BGC-823 (human gastric cancer cells)", 30],
  ["C/C=C1\\NC(=O)c2ccc(SC)c(n2)CNC(=O)C[C@@H](/C=C/CCSC(=O)CCC)OC(=O)[C@H](C(C)C)NC1=O", "BGC-823 (human gastric cancer cells)", 20]
]}

Values were extracted from patent US10065990B2.
